From: patent US20250034594A1

Reported Editing Efficiency (Absolute, Average, two targets) values for the following molecules.
system: endogenous genome targets (ACTB, HSP90AA1); assay: Arrayed SSAP library screening, mKate knock-in assay (editing efficiency); assay type: cell-based; conditions: percent of mKate knock-in; average of HSP90 and ACTB; 3 days after transfection
I'd appreciate a reply containing only the number, no unit.

SSAP_288: SEQ ID NO: 457; Clostridium thermobutyricum (protein, listed as Clostridium thermobutyricum) QSTGDIVFPQNYNYSNALKSAQLILAETVDRNKVPVLQSCSKPSICNALLDMVIQGLSPAKKQCYFVPYGGKLQLMKSYLGNIAATKRLKGVKDVFANVIYEGDVFEYKLNLNTGLIEIEKHEQKFENISKKILGAYAVVVRENQNNYVEVMNIEQIKNAWNQGAAKGNSQAHKNFAEEMAKKTVINRACKRFVNTSDDSDTLIESINRTNEYKEEDIIETTKSEVGEEIKENANTENLGLEDTEVVEAEVIENIEFEGDK	9.4725

Okay, now this molecule:
Which Editing Efficiency (Absolute, Average, two targets) is reported for this molecule? SSAP_172: SEQ ID NO: 341; Staphylococcus pettenkoferi (protein, listed as Staphylococcus pettenkoferi) ATQKDFKNQISQKETQQKQEVQKKKKGPRQQVSDLLDRMAPEIEKALPNHLSADRMARVAMTAVSSNPKLLECDPKSFIGAVMQSAQLGLEPNTALGEAYLVPYAGKVNFQLSYLGLINLATRSGQYKAIYAHEVYAEDEFRYQYGLHKDLIHKPVDNPKGKPIGYYAVYHLLNGGYDFVYWTTERIQKHAKKYSFAVQKGYQSPWNDEFDAMAKKTVLKDLLKYAPKSIEMNNAVRSDDKQSELSDEGVVIDVTNYDEENGEEK 10.4925
